USP7 (Homo sapiens, UniProt Q93009) data, read-out IC50
Sequence (Q93009 whole entry): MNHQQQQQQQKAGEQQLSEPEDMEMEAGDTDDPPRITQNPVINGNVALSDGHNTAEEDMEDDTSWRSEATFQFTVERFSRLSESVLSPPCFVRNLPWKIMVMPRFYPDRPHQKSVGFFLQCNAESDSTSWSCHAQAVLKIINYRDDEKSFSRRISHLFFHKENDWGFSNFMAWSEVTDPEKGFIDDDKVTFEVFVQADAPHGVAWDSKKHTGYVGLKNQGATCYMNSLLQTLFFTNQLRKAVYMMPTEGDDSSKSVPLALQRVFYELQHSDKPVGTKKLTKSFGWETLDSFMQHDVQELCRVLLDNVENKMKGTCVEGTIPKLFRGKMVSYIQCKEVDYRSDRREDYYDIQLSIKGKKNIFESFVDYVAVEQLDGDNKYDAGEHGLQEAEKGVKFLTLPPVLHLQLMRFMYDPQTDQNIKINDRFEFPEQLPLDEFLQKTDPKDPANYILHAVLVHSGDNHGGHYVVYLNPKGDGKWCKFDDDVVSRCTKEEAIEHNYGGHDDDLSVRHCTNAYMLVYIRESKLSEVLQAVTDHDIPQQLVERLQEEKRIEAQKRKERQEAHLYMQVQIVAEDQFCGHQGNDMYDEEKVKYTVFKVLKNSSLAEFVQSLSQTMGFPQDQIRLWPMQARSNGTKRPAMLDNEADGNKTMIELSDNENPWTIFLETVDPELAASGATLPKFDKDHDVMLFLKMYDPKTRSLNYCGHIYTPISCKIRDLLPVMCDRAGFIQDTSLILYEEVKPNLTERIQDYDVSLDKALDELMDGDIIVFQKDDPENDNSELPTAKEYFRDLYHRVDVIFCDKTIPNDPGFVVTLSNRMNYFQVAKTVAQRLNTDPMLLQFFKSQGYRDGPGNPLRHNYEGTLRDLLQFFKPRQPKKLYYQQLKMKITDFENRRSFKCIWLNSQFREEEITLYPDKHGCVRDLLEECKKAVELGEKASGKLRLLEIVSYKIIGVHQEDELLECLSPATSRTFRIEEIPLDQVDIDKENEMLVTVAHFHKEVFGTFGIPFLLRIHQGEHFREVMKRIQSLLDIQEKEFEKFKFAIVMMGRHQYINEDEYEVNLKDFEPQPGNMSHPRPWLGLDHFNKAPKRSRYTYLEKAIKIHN

GET /values?item= Cn1nc2c(c1[C@H]1Cc3cc(Cl)cc(-c4ncnc5ccsc45)c3O1)CNCC2 &system= USP7 (Homo sapiens, UniProt Q93009) returns IC50: < 1000 nM

Fill in: USP7 (Homo sapiens, UniProt Q93009) IC50 for O=C(Nc1ccc(F)cc1)c1cc2c(-c3cc(Cl)cc4c3OC(C(=O)N3CCNCC3)C4)ccnc2[nH]1 (stereo not drawn) = 1000 to 10000 nM

# lookup: Clc1cc2c(c(-c3ncnc4ccsc34)c1)O[C@@H](c1onc3c1CNCC3)C2 on USP7 (Homo sapiens, UniProt Q93009), IC50 = < 1000 nM
